Target: PLK3 (human) (UniProt Q9H4B4)
Sequence (Q9H4B4 whole entry, looked up): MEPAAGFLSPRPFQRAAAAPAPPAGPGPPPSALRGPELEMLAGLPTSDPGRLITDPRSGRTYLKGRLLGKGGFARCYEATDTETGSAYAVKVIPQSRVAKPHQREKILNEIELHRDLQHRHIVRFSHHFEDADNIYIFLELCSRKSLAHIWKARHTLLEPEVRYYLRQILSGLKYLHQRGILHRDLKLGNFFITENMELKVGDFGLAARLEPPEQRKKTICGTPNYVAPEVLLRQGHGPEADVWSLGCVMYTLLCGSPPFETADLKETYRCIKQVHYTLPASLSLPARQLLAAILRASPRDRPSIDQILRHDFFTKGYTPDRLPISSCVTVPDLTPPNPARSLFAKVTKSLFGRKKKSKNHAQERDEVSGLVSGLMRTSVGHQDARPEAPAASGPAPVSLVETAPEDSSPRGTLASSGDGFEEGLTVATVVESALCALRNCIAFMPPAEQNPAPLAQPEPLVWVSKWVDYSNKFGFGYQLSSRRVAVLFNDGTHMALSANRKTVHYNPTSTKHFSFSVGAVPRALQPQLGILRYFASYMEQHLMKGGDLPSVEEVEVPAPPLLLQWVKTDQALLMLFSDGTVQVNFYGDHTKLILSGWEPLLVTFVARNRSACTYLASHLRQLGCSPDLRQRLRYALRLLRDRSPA
Assay: SelectScreen, TR FRET
Conditions: compound 10.0 µM

| mol | inhibition (%) |
| --- | --- |
| CC(C)Nc1c(C(N)=O)nnc2cc(-c3ccncc3)ccc12 | -0.393 |
| CS(=O)(=O)c1ccc(-c2ccc3c(NC4CCC4)c(C(N)=O)nnc3c2)cc1 | 9.8 |
| C[C@@H](Nc1c(C(N)=O)nnc2cc(-c3ccc(S(C)(=O)=O)cc3)ccc12)C1CC1 | 4.63 |
| CC(C)Nc1c(C(N)=O)nnc2cc(-c3ccc(N4CCOCC4)cc3)ccc12 | -15.6 |
| CC(C)Nc1c(C(N)=O)cnc2cc(-c3ccc(S(C)(=O)=O)cc3)ccc12 | 0.957 |

---

Biological target: CDK1 CCNB1 (human) (UniProt P06493+P14635)
Sequence (P06493 whole entry, looked up): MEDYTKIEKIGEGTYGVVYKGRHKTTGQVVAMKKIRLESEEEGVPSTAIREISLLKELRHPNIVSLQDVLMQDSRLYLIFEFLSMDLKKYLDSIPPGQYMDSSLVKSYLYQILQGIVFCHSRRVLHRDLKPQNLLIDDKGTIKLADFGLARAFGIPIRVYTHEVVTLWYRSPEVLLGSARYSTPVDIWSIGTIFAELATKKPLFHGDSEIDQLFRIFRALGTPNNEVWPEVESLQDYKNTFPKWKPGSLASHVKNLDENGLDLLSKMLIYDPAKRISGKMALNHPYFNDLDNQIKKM
Sequence (P14635 whole entry, looked up): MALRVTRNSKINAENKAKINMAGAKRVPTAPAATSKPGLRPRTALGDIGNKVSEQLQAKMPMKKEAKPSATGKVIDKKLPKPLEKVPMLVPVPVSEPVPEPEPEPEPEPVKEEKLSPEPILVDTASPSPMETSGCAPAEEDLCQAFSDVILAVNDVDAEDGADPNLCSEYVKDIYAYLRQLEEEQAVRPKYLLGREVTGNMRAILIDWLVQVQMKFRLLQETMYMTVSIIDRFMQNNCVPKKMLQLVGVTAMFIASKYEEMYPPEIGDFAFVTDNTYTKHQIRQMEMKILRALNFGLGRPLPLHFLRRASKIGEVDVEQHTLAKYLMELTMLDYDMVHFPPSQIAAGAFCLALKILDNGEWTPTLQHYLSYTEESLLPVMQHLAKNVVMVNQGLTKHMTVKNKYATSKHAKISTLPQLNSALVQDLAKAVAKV
Assay: SelectScreen, TR FRET
Settings: compound 10.0 µM

| mol | inhibition |
| --- | --- |
| CC(C)Nc1c(C(N)=O)cnc2cc(-c3ccc(S(C)(=O)=O)cc3)ccc12 | 1.38% |
| C[C@@H](Nc1c(C(N)=O)nnc2cc(-c3ccc(S(C)(=O)=O)cc3)ccc12)C1CC1 | -2.77% |
| CS(=O)(=O)c1ccc(-c2ccc3c(NC4CCC4)c(C(N)=O)nnc3c2)cc1 | 7.35% |
| CC(C)Nc1c(C(N)=O)nnc2cc(-c3ccc(N4CCOCC4)cc3)ccc12 | 2.62% |

---

Listing of recorded inhibition by entry.
Molecular target: CLK1 (human)
Experiment: SelectScreen, TR FRET
Details: compound 10.0 µM

| mol | inhibition, % |
| --- | --- |
| CS(=O)(=O)c1ccc(-c2ccc3c(NC4CCC4)c(C(N)=O)nnc3c2)cc1 | 13.7 |
| CC(C)Nc1c(C(N)=O)cnc2cc(-c3ccc(S(C)(=O)=O)cc3)ccc12 | 1.75 |
| C[C@@H](Nc1c(C(N)=O)nnc2cc(-c3ccc(S(C)(=O)=O)cc3)ccc12)C1CC1 | 5.47 |
| CC(C)Nc1c(C(N)=O)nnc2cc(-c3ccc(N4CCOCC4)cc3)ccc12 | 4.04 |

---

Target: MAPK1 (human)
Assay: SelectScreen, TR FRET
Conditions: compound 10.0 µM
Measured inhibition by item
property-measured: inhibition (%)

| mol | tested-system | property-measured | number |
| --- | --- | --- | --- |
| CC(C)Nc1c(C(N)=O)nnc2cc(-c3ccc(N4CCOCC4)cc3)ccc12 | MAPK1 (human) | inhibition | -5.26 |
| C[C@@H](Nc1c(C(N)=O)nnc2cc(-c3ccc(S(C)(=O)=O)cc3)ccc12)C1CC1 | MAPK1 (human) | inhibition | -52.2 |
| CC(C)Nc1c(C(N)=O)nnc2cc(-c3ccncc3)ccc12 | MAPK1 (human) | inhibition | 22.7 |
| CS(=O)(=O)c1ccc(-c2ccc3c(NC4CCC4)c(C(N)=O)nnc3c2)cc1 | MAPK1 (human) | inhibition | 2.96 |

---

inhibition values by entry
Target: CDK5 CDK5R1 p25 (human) (UniProt Q15078+Q00535)
Sequence (Q00535 whole entry, looked up): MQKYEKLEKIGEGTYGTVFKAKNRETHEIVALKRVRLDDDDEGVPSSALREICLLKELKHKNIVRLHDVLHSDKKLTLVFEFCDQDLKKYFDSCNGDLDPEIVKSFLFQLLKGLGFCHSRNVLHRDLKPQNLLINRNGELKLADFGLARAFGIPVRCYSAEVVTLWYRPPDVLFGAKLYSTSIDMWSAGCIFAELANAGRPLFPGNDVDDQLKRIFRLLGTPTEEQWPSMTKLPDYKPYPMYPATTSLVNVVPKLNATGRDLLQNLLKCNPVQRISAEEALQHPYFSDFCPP
Sequence (Q15078 whole entry, looked up): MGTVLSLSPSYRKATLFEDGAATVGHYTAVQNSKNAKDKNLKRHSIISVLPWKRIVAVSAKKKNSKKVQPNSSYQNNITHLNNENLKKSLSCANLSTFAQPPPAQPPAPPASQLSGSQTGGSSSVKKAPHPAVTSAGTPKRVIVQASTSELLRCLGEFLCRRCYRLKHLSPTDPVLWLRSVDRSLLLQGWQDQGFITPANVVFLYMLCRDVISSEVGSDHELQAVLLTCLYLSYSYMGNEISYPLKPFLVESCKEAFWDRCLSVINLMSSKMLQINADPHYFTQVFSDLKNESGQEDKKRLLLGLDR
Test: SelectScreen, TR FRET
Conditions: compound 10.0 µM
property-measured: inhibition

| mol | property-measured | result |
| --- | --- | --- |
| CC(C)Nc1c(C(N)=O)nnc2cc(-c3ccc(N4CCOCC4)cc3)ccc12 | inhibition | 3.19% |
| CS(=O)(=O)c1ccc(-c2ccc3c(NC4CCC4)c(C(N)=O)nnc3c2)cc1 | inhibition | -0.613% |
| CC(C)Nc1c(C(N)=O)cnc2cc(-c3ccc(S(C)(=O)=O)cc3)ccc12 | inhibition | 2.45% |
| C[C@@H](Nc1c(C(N)=O)nnc2cc(-c3ccc(S(C)(=O)=O)cc3)ccc12)C1CC1 | inhibition | -16.4% |
